# assay.target: BRAF G466V (Homo sapiens, UniProt P15056, G466V)
# Construct: expressed in transfected cells
# Sequence (P15056 whole entry G466V): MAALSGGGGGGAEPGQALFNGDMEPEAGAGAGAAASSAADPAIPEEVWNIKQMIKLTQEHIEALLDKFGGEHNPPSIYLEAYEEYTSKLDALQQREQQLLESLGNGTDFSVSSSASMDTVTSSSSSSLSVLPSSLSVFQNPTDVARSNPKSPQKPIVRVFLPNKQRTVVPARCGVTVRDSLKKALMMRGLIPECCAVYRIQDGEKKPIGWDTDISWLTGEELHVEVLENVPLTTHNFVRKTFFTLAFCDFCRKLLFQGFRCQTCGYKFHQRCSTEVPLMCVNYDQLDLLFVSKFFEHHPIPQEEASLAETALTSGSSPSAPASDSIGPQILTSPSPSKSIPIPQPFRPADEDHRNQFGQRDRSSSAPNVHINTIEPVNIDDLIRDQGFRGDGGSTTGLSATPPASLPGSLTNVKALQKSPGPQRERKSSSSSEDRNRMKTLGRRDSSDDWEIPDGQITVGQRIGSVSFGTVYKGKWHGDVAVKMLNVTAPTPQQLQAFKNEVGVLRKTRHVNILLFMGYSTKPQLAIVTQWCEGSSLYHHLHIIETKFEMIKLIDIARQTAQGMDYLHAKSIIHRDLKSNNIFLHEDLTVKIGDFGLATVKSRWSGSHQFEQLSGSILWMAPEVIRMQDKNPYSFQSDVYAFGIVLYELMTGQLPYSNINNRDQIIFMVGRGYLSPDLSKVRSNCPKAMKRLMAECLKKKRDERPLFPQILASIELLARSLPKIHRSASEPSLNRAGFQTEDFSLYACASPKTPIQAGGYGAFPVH
# measurement.protocol: Cellular assay of target protein degradation, T-Rex 293 cells stably transfected with HA-BRAF G466V (HA immunofluorescence, high content imaging)
# Assay type: cell-based
# setup.conditions: half maximal degradation, T-Rex 293 HA-BRAF G466V; read-out: BRaf G466V DC50
endpoint.label: DC50

Example results:
compound	DC50
O=C1CC[C@H](N2Cc3cc(N4CCC(CN5CCC6(CCN(c7ccc(-c8cnc9[nH]cc(C(=O)c%10c(F)ccc(NS(=O)(=O)N%11CC[C@@H](F)C%11)c%10F)c9c8)cc7F)CC6)C5)CC4)ccc3C2=O)C(=O)N1 [Compound 258]	< 1 nM
O=C1CCC(N2Cc3cc(N4CCC(COCC5CCN(c6ccc(-c7cnc8[nH]cc(C(=O)c9c(F)ccc(NS(=O)(=O)N%10CC[C@@H](F)C%10)c9F)c8c7)cc6)CC5)CC4)ccc3C2=O)C(=O)N1 (some centres unmarked) [Compound 143]	10 to 30 nM
O=C1CCC(N2Cc3cc(OCCCCN4CCN(c5ccc(-c6cnc7[nH]cc(C(=O)c8c(F)ccc(NS(=O)(=O)N9CC[C@@H](F)C9)c8F)c7c6)cc5F)CC4)ccc3C2=O)C(=O)N1 (some centres unmarked) [Compound 113]	1 to 10 nM
O=C1CCC(N2Cc3cc(N4CCN(CCCCc5ccc(-c6cnc7[nH]cc(C(=O)c8c(F)ccc(NS(=O)(=O)N9CC[C@@H](F)C9)c8F)c7c6)cc5)CC4)ccc3C2=O)C(=O)N1 (some centres unmarked) [Compound 317]	1 to 10 nM

Quick note, DC50 for O=C1CCC(NC(=O)c2ccc(CCCN3CC4(C3)CN(c3ccc(-c5cnc6[nH]cc(C(=O)c7c(F)ccc(NS(=O)(=O)N8CC[C@@H](F)C8)c7F)c6c5)cc3)C4)cc2F)C(=O)N1 (some centres unmarked) [Compound 356] landed at > 30 nM

###

# assay.target: BRAF G466V (Homo sapiens, UniProt P15056, G466V)
# Construct: expressed in transfected cells
# measurement.protocol: Cellular assay of target protein degradation, T-Rex 293 cells stably transfected with HA-BRAF G466V (HA immunofluorescence, high content imaging)
# Type: cell-based
# setup.conditions: maximum degradation observed, T-Rex 293 HA-BRAF G466V
endpoint.label: Dmax

compound	observed.result
O=C1CCC(NC(=O)N2CCCc3c(C4CCN(CC5CCN(c6ccc(-c7cnc8[nH]cc(C(=O)c9c(F)ccc(NS(=O)(=O)N%10CC[C@@H](F)C%10)c9F)c8c7)cc6)CC5)CC4)ccnc32)C(=O)N1 (stereo partly drawn) [Compound 364]	> 70%
O=C1CCC(N2Cc3cc(N4CCC(CN5CCC(C6(c7ccc(-c8cnc9[nH]cc(C(=O)c%10c(F)ccc(NS(=O)(=O)N%11CC[C@@H](F)C%11)c%10F)c9c8)cc7)CC6)CC5)CC4)ccc3C2=O)C(=O)N1 (stereo partly drawn) [Compound 174]	> 70%
COc1cc(N2CC3(CN(CC4CCN(c5ccc(-c6cnc7[nH]cc(C(=O)c8c(F)ccc(NS(=O)(=O)N9CC[C@@H](F)C9)c8F)c7c6)cn5)CC4)C3)C2)cc2c1C(=O)N(C1CCC(=O)NC1=O)C2 (stereo partly drawn) [Compound 133]	> 70%
O=C1CCC(N2Cc3cc(C4CCN(CCOc5ccc(-c6cnc7[nH]cc(C(=O)c8c(F)ccc(NS(=O)(=O)N9CC[C@@H](F)C9)c8F)c7c6)cc5)CC4)ccc3C2=O)C(=O)N1 (stereo partly drawn) [Compound 69]	> 70%
C[C@H]1CC[C@H](C)N1S(=O)(=O)Nc1ccc(F)c(C(=O)c2c[nH]c3ncc(-c4ccc(N5CCC(CN6CCC(c7ccc8c(c7)CN(C7CCC(=O)NC7=O)C8=O)CC6)CC5)cc4)cc23)c1F (stereo partly drawn) [Compound 263]	35 to 70%
O=C1CCC(N2Cc3cc(N4CCC(CN5CC6(CCN(c7ncc(-c8cnc9[nH]cc(C(=O)c%10c(F)ccc(NS(=O)(=O)N%11CC[C@@H](F)C%11)c%10F)c9c8)cn7)C6)C5)CC4)ccc3C2=O)C(=O)N1 (stereo partly drawn) [Compound 93]	> 70%
O=C1CC[C@H](N2Cc3cc(N4CCC(CN5CC6(C5)CN(c5ccc(-c7cnc8[nH]cc(C(=O)c9c(F)ccc(NS(=O)(=O)N%10CC[C@@H](F)C%10)c9F)c8c7)cc5)C6)CC4)c(F)cc3C2=O)C(=O)N1 [Compound 55]	> 70%
O=C1CC[C@H](N2Cc3cc(C[C@@H](O)CN4CC5(C4)CN(c4ccc(-c6cnc7[nH]cc(C(=O)c8c(F)ccc(NS(=O)(=O)N9CC[C@@H](F)C9)c8F)c7c6)cc4)C5)ccc3C2=O)C(=O)N1 [Compound 128]	> 70%

// assay BRAF G466V (Homo sapiens, UniProt P15056, G466V), entry C[C@H]1[C@H](F)CCN1S(=O)(=O)Nc1ccc(F)c(C(=O)c2c[nH]c3ncc(-c4ccc(N5CCC(CN6CCC(c7ccc8c(c7)CN(C7CCC(=O)NC7=O)C8=O)CC6)CC5)cc4)cc23)c1F (stereo partly drawn) [Compound 271] , Dmax value = > 70%

###

# assay.target: BRAF V600E (Homo sapiens, UniProt P15056, V600E)
# Construct: expressed in transfected cells
# Sequence (P15056 whole entry V600E): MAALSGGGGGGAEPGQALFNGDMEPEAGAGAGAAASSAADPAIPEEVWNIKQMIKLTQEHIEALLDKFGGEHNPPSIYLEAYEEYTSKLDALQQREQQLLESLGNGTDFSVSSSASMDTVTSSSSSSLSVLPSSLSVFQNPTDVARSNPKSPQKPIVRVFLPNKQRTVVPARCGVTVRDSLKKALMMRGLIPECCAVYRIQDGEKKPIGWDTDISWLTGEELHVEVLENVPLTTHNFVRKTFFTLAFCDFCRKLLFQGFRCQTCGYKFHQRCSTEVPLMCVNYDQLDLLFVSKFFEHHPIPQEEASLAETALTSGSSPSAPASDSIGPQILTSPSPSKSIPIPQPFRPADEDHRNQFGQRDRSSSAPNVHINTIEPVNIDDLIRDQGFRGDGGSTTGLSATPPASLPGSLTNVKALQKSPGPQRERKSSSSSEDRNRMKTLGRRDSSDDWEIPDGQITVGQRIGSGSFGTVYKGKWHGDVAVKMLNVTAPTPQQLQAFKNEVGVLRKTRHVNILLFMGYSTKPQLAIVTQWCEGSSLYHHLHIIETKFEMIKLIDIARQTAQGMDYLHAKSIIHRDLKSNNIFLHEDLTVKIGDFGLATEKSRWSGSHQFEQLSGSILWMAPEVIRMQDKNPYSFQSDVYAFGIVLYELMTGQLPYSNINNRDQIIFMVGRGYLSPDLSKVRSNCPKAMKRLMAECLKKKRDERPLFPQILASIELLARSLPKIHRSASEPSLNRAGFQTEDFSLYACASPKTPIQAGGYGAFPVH
# measurement.protocol: Cellular assay of target protein degradation, T-Rex 293 cells stably transfected with HA-BRAF_V600E (HA immunofluorescence, high content imaging)
# Assay type: cell-based
# setup.conditions: half maximal degradation, T-Rex 293 HA-BRAF V600E; read-out: BRaf V600E DC50
Below is a list of entries, each paired with its recorded DC50 value.

Record excerpt, results attached:
molecule	observed.result
COc1cc(N2CCC(CN3CCN(c4ccc(-c5cnc6[nH]cc(C(=O)c7c(F)ccc(NS(=O)(=O)N8CC[C@@H](F)C8)c7F)c6c5)cc4)CC3)CC2)ccc1C(=O)N[C@H]1CCC(=O)NC1=O	5 to 50 nM
O=C1CC[C@H](NC(=O)N2CCCc3c(C4CCN(CC5CCN(c6ccc(-c7cnc8[nH]cc(C(=O)c9c(F)ccc(NS(=O)(=O)N%10CC[C@@H](F)C%10)c9F)c8c7)cc6)CC5)CC4)ccnc32)C(=O)N1	5 to 50 nM
O=C1CC[C@@H](N2Cc3cc(CN4C[C@@H]5CN(c6ccc(-c7cnc8[nH]cc(C(=O)c9c(F)ccc(NS(=O)(=O)N%10CC[C@@H](F)C%10)c9F)c8c7)cc6)C[C@@H]5C4)ccc3C2=O)C(=O)N1	5 to 50 nM
O=C1CC[C@H](N2Cc3cc(OCCCN4CC5(C4)CN(c4ccc(-c6cnc7[nH]cc(C(=O)c8c(F)ccc(NS(=O)(=O)N9CC[C@@H](F)C9)c8F)c7c6)cc4)C5)ccc3C2=O)C(=O)N1	< 5 nM

Entry O=C1CCC(N2Cc3cc(C4CCN(CC5CCN(c6ccc(-c7cnc8[nH]cc(C(=O)c9c(F)ccc(NS(=O)(=O)N%10CCCC%10)c9F)c8c7)cc6)CC5)CC4)ccc3C2=O)C(=O)N1 (stereo not drawn) ; DC50 = < 5 nM

Entry under test: "O=C1CC[C@H](N2Cc3cc(C4CCN(CC5CCN(c6ccc(-c7cnc8[nH]cc(C(=O)c9c(F)ccc(NS(=O)(=O)N%10CC[C@@H](F)C%10)c9Cl)c8c7)cc6)CC5)CC4)ccc3C2=O)C(=O)N1" . Its DC50 was 5 to 50 nM

###

# assay.target: BRAF V600E (Homo sapiens, UniProt P15056, V600E)
# Construct: expressed in transfected cells
# measurement.protocol: Cellular assay of target protein degradation, T-Rex 293 cells stably transfected with HA-BRAF_V600E (HA immunofluorescence, high content imaging)
# Type: cell-based
# setup.conditions: maximum degradation observed, T-Rex 293 HA-BRAF V600E
endpoint.label: Dmax

compound	Dmax
O=C1CCC(N2Cc3cc(O[C@H]4C[C@]5(COCCN5CC5CCN(c6ccc(-c7cnc8[nH]cc(C(=O)c9c(F)ccc(NS(=O)(=O)N%10CC[C@@H](F)C%10)c9F)c8c7)cc6)CC5)C4)ccc3C2=O)C(=O)N1 (some centres unmarked)	35 to 70%

compound O=C1CCC(N2Cc3cc(C4CCN(C[C@@H]5C[C@H]6CC[C@@H](C5)N6c5ccc(-c6cnc7[nH]cc(C(=O)c8c(F)ccc(NS(=O)(=O)N9CC[C@@H](F)C9)c8F)c7c6)cc5)CC4)ccc3C2=O)C(=O)N1 (some centres unmarked) , Dmax observed: 35 to 70%

Reported Dmax of "O=C1CC[C@H](NC(=O)c2ccc(C3CCN(CC4CCN(c5ncc(-c6cnc7[nH]cc(C(=O)c8c(F)ccc(NS(=O)(=O)N9CC[C@@H](F)C9)c8F)c7c6)cn5)CC4)CC3)cc2F)C(=O)N1" : 35 to 70%

// recorded Dmax for "O=C1CC[C@@H](N2Cc3cc(C[C@@H](O)CN4CCN(c5ccc(-c6cnc7[nH]cc(C(=O)c8c(F)ccc(NS(=O)(=O)N9CC[C@@H](F)C9)c8F)c7c6)cc5)CC4)ccc3C2=O)C(=O)N1" : 35 to 70%

The recorded Dmax for entry "O=C1CCN(c2ccc(C3CCN(CCC4CCN(c5ccc(-c6cnc7[nH]cc(C(=O)c8c(F)ccc(NS(=O)(=O)N9CC[C@@H](F)C9)c8F)c7c6)cc5)CC4)CC3)cc2F)C(=O)N1" equals 35 to 70%

The origin of these recorded values is patent US12180193B2.
